measured-attribute: IC50

Record lookup: for UniProt:Q5S007, what IC50 belongs to O=C1CCCOc2cccc(c2)-c2cnn3ccc(nc23)NCCN1 ?
< 100 nM

###

Molecular target: truncated LRRK2 (Homo sapiens)
Construct: a truncated LRRK2 enzyme (GST tagged LRRK2 of amino acids 970-2527); GST; purchased Invitrogen Corporation
Sequence (Q5S007 970-2527): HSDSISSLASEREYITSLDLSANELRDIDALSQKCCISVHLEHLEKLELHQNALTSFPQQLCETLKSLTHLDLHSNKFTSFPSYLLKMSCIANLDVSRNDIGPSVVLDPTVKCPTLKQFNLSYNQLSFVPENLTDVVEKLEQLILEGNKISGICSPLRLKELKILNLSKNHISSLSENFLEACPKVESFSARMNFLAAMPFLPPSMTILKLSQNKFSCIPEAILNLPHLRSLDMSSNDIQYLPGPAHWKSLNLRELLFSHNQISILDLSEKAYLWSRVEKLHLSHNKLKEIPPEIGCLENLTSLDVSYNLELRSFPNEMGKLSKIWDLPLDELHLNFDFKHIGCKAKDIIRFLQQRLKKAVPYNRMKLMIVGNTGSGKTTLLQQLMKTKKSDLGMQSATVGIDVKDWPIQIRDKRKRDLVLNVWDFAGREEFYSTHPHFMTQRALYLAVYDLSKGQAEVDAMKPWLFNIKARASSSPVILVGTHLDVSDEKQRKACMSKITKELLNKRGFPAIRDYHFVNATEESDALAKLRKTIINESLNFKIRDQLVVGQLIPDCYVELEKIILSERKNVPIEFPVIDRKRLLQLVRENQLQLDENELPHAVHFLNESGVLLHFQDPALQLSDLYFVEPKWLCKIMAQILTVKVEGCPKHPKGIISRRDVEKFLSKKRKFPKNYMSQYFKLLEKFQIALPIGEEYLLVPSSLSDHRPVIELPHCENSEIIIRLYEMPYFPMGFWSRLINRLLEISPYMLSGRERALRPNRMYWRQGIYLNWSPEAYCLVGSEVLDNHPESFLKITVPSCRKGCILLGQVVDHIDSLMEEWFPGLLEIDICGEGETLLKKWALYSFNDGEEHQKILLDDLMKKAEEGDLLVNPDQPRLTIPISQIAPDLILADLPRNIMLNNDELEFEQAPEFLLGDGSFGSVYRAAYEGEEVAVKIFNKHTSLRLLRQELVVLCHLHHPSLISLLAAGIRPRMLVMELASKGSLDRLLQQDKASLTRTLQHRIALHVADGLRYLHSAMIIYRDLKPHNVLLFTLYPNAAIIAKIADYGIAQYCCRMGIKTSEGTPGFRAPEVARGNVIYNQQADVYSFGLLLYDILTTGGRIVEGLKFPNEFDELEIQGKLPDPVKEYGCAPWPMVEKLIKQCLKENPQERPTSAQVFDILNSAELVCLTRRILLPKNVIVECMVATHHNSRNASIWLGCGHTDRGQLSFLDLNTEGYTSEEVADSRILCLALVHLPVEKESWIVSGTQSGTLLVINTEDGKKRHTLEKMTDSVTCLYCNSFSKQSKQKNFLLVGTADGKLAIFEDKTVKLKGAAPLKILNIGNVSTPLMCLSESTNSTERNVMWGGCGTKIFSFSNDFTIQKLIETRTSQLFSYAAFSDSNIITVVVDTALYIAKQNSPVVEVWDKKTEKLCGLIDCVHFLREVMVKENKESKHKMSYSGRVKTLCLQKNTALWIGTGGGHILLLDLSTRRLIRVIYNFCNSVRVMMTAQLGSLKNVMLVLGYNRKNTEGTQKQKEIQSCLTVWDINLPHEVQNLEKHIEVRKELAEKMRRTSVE
Assay: radiometric protein kinase assay (33PanQinase Activity Assay, Protocol 2), truncated LRRK2
Assay type: biochemical
Conditions: Protocol 2; ATP 0.3 μM, substrate GSK3(14-27); read-out: IC50 for truncated LRRK2
pIC50: −log10 of the molar value.
measured-attribute: pIC50

Entry under review: C=CC(=O)N1CCNc2ccn3ncc(c3n2)-c2cccc(c2)OCC1 [Compound 70] . Reported pIC50?
> 7.00

Entry under review: CN1CCN(CC(=O)N2CCNc3ccn4ncc(c4n3)-c3cccc(c3)OCC2)CC1 [Example 39] . Reported pIC50?
6.00 to 7.00

Entry under review: O=C(C1CC1)N1CCNCc2cccc(c2)-c2cnn3ccc(nc23)NCC1 [Example 51] . Reported pIC50?
6.00 to 7.00

Entry under review: O=C(CCF)N1CCNc2ccn3ncc(c3n2)-c2cccc(c2)OCC1 [Example 10] . Reported pIC50?
> 7.00

Entry under review: O=C1CN(C(=O)C2CC2)CCNc2ccn3ncc(c3n2)-c2cccc(c2)N1 [Compound 67] . Reported pIC50?
< 6.00

Entry under review: O=C(CN1CCOCC1)N1CCNc2ccn3ncc(c3n2)-c2cccc(c2)OCC1 [Example 36] . Reported pIC50?
6.00 to 7.00

Entry under review: O=C(N1CCNc2ccn3ncc(c3n2)-c2cccc(c2)OCC1)N1CCN(CCF)CC1 [Example 29] . Reported pIC50?
6.00 to 7.00

Entry under review: CN(C)CCN1CCNc2ccn3ncc(c3n2)-c2cccc(c2)OCC1=O [Example 46] . Reported pIC50?
< 6.00

Entry under review: O=C1CCC(=O)Nc2cccc(c2)-c2cnn3ccc(nc23)OCCCN1 [Compound 68] . Reported pIC50?
< 6.00

Entry under review: O=C1NCCN(C(=O)C2CC2)CCNc2ccn3ncc(c3n2)-c2cccc1c2 [Example 45] . Reported pIC50?
6.00 to 7.00

Entry under review: CN1CCC(=O)NCCNc2ccn3ncc(c3n2)-c2cccc(c2)C1 [Compound 60] . Reported pIC50?
> 7.00

Entry under review: O=C(c1cocn1)N1CCNc2ccn3ncc(c3n2)-c2cccc(c2)OCC1 [Example 33] . Reported pIC50?
> 7.00

Entry under review: O=C(c1ccc[nH]1)N1CCNc2ccn3ncc(c3n2)-c2cccc(c2)OCC1 [Example 32] . Reported pIC50?
> 7.00

Entry under review: NC(=O)CN1CCNc2ccn3ncc(c3n2)-c2cccc(c2)OCC1 [Example 13] . Reported pIC50?
> 7.00

Entry under review: COCCC(=O)N1CCNCc2cccc(c2)-c2cnn3ccc(nc23)NCC1 [Compound 54] . Reported pIC50?
6.00 to 7.00

Entry under review: N#Cc1ccc2cc1OCCN(C(=O)C1CC1)CCNc1ccn3ncc-2c3n1 [Example 42] . Reported pIC50?
> 7.00

Entry under review: CN(C)CCN1CCN(C(=O)C2CC2)CCOc2cccc(c2)-c2cnn3ccc1nc23 [Example 48] . Reported pIC50?
6.00 to 7.00

Entry under review: CCCC(=O)N1CCNCc2cccc(c2)-c2cnn3ccc(nc23)NCC1 [Compound 55] . Reported pIC50?
< 6.00

###

Target: truncated LRRK2-G2019S (GST tagged LRRK2-G2019S of amino acids 970-2527) (Homo sapiens, UniProt Q5S007, G2019S)
Construct: GST tagged LRRK2-G2019S of amino acids 970-2527; GST
Sequence (Q5S007 970-2527 G2019S): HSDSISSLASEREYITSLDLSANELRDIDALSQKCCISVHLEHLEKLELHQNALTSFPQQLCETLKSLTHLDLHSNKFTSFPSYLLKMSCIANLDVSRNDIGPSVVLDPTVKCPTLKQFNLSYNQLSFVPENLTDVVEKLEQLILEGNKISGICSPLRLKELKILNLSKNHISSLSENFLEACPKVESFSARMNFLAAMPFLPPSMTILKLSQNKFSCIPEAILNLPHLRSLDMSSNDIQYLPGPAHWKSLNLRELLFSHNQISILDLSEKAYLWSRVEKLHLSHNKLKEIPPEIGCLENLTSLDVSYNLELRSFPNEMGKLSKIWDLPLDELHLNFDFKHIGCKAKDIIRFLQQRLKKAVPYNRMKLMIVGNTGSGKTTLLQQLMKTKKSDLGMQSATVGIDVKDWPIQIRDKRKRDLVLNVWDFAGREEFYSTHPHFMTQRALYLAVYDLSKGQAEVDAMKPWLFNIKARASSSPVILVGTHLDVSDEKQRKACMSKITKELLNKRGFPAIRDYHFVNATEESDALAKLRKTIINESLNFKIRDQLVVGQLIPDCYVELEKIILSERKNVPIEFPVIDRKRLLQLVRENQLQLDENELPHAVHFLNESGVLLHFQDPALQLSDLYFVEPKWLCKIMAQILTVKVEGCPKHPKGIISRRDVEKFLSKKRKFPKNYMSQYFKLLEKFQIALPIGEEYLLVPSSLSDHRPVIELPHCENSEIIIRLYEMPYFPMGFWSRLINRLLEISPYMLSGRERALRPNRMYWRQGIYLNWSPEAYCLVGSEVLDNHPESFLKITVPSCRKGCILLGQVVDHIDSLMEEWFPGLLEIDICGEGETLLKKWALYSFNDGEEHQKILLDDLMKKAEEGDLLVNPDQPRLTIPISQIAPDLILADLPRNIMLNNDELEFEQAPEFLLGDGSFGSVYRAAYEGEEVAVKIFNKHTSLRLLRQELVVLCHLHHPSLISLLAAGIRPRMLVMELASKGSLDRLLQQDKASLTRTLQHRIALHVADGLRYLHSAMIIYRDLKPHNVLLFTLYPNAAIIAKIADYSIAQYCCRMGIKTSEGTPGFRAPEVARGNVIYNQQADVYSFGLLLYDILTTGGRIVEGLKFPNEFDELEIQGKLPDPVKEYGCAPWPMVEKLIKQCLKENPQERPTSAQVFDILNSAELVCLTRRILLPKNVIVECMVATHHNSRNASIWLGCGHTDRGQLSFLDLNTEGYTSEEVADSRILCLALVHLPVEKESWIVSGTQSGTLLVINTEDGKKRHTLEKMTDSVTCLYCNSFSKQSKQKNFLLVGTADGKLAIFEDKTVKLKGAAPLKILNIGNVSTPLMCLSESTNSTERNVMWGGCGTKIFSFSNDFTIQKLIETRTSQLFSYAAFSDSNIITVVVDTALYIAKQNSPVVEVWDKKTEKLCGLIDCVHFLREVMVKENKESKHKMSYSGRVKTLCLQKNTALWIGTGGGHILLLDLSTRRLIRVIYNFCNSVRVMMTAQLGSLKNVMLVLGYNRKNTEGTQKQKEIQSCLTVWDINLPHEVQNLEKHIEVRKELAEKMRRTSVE
Experiment: LRRKtide 32P-ATP peptide kinase assay (Protocol 1), truncated LRRK2-G2019S
Format: biochemical
Details: 10 μM ATP, 200 μM lrrktide
pIC50: −log10 of the molar value.
measured-attribute: pIC50

Entry under review: CN1CCNc2ccn3ncc(c3n2)-c2cccc(c2)OCC1=O [Example 5] . Reported pIC50?
6.00 to 7.00

Entry under review: O=C(C1CC1)N1CCNc2ccn3ncc(c3n2)-c2cccc(c2)OCC1 [Example 1] . Reported pIC50?
> 7.00

Entry under review: O=C(CCO)N1CCNc2ccn3ncc(c3n2)-c2cccc(c2)OCC1 [Example 4] . Reported pIC50?
> 7.00

Entry under review: O=C1CCNc2ccn3ncc(c3n2)-c2cccc(c2)OCCN1 [Example 3] . Reported pIC50?
> 7.00

Entry under review: O=C1CCCOc2cccc(c2)-c2cnn3ccc(nc23)NCCN1 [Example 2] . Reported pIC50?
6.00 to 7.00

###

Target: truncated LRRK2 (GST tagged LRRK2 of amino acids 970-2527) (Homo sapiens)
Construct: GST tagged LRRK2 of amino acids 970-2527; GST
Assay: LRRKtide 32P-ATP peptide kinase assay (Protocol 1), truncated LRRK2
Settings: 10 μM ATP, 200 μM lrrktide
pIC50: −log10 of the molar value.
Please go through the items and note down their pIC50.

Entry under review: O=C1CCCOc2cccc(c2)-c2cnn3ccc(nc23)NCCN1 [Example 2] . Reported pIC50?
6.00 to 7.00

Entry under review: O=C(CCO)N1CCNc2ccn3ncc(c3n2)-c2cccc(c2)OCC1 [Example 4] . Reported pIC50?
> 7.00

Entry under review: CN1CCNc2ccn3ncc(c3n2)-c2cccc(c2)OCC1=O [Example 5] . Reported pIC50?
6.00 to 7.00

Entry under review: O=C1CCNc2ccn3ncc(c3n2)-c2cccc(c2)OCCN1 [Example 3] . Reported pIC50?
> 7.00

Entry under review: O=C(C1CC1)N1CCNc2ccn3ncc(c3n2)-c2cccc(c2)OCC1 [Example 1] . Reported pIC50?
> 7.00

###

measured-attribute: melting point

Entry under review: O=S1(=O)CCCOc2cccc(c2)-c2cnn3ccc(nc23)NCCN1 . Reported melting point?
269 °C

Entry under review: C=CC(=O)N1CCNc2ccn3ncc(c3n2)-c2cccc(c2)OCC1 . Reported melting point?
> 300 °C

Entry under review: O=C(C1CC1)N1CCNc2ccn3ncc(c3n2)-c2cccc(c2)OCC1 . Reported melting point?
> 300 °C

Entry under review: CCC(=O)N1CCNc2ccn3ncc(c3n2)-c2cccc(c2)N(C)CC1 . Reported melting point?
> 300 °C

Entry under review: O=C(CCO)N1CCNc2ccn3ncc(c3n2)-c2cccc(c2)OCC1 . Reported melting point?
> 300 °C

Entry under review: O=C1CCC(=O)Nc2cccc(c2)-c2cnn3ccc(nc23)OCCCN1 . Reported melting point?
295.1 °C

Entry under review: O=C1CCNc2ccn3ncc(c3n2)-c2cccc(c2)OCCN1 . Reported melting point?
> 300 °C

Entry under review: O=C1CNc2ccn3ncc(c3n2)-c2cccc(c2)OCCOCCN1 . Reported melting point?
272.5 °C

Entry under review: O=C1CCCOc2cccc(c2)-c2cnn3ccc(nc23)NCCN1 . Reported melting point?
> 300 °C

Entry under review: NC(=O)c1cc2cc(c1)-c1cnn3ccc(nc13)NCCN(C(=O)C1CC1)CCO2 . Reported melting point?
> 300 °C

Entry under review: CN1CCNc2ccn3ncc(c3n2)-c2cccc(c2)OCC1=O . Reported melting point?
> 300 °C

Entry under review: O=C1CNc2ccn3ncc(c3n2)-c2cccc(c2)OCCCCN1 . Reported melting point?
> 300 °C

###

Biological target: truncated LRRK2 (Homo sapiens)
Construct: a truncated LRRK2 enzyme (GST tagged LRRK2 of amino acids 970-2527); GST; purchased Invitrogen Corporation
Test: radiometric protein kinase assay (33PanQinase Activity Assay, Protocol 2), truncated LRRK2
Type: biochemical
Settings: Protocol 2; ATP 0.3 μM, substrate GSK3(14-27); read-out: IC50 for truncated LRRK2
measured-attribute: IC50

Record lookup: for truncated LRRK2 (Homo sapiens), what IC50 belongs to COCCC(=O)N1CCNc2ccn3ncc(c3n2)-c2cccc(c2)OCC1 ?
100 to 1000 nM

Record lookup: for truncated LRRK2 (Homo sapiens), what IC50 belongs to O=C(CCN1CCCC1)N1CCNc2ccn3ncc(c3n2)-c2cccc(c2)OCC1 ?
< 100 nM

Record lookup: for truncated LRRK2 (Homo sapiens), what IC50 belongs to CCC(=O)N1CCNc2cccc(c2)-c2cnn3ccc(nc23)NCC1 ?
< 100 nM

Record lookup: for truncated LRRK2 (Homo sapiens), what IC50 belongs to O=C1CNc2cccc(c2)-c2cnn3ccc(nc23)NCCN1 ?
100 to 1000 nM

Record lookup: for truncated LRRK2 (Homo sapiens), what IC50 belongs to CCOC(=O)N1CCCNc2ccn3ncc(c3n2)-c2cccc(c2)OCC1 ?
100 to 1000 nM

Record lookup: for truncated LRRK2 (Homo sapiens), what IC50 belongs to O=C1CCNCc2cccc(c2)-c2cnn3ccc(nc23)NCCN1 ?
> 1000 nM

Record lookup: for truncated LRRK2 (Homo sapiens), what IC50 belongs to COCCC(=O)N1CCCN(C)c2cccc(c2)-c2cnn3ccc(nc23)NCC1 ?
100 to 1000 nM

Record lookup: for truncated LRRK2 (Homo sapiens), what IC50 belongs to O=S(=O)(C1CC1)N1CCNc2ccn3ncc(c3n2)-c2cccc(c2)OCC1 ?
100 to 1000 nM

Record lookup: for truncated LRRK2 (Homo sapiens), what IC50 belongs to CN(C)CCC(=O)N1CCNCc2cccc(c2)-c2cnn3ccc(nc23)NCC1 ?
> 1000 nM
